Origin of measurements: ChEMBL document CHEMBL4229414

inhibition values by entry
- assaySystem: D(2) dopamine receptor (Homo sapiens)
- assayNotes: Agonist activity at human D2L receptor expressed in CHOK1 cells assessed as inhibition of receptor response at 10 uM by calcium flux assay relative to control
- Format: functional, cell-based
propertyLabel: inhibition (%)

# compound, reportedResult
data = [
    ("CCCN1[C@@H]2COC[C@H]1CN(c1ccccc1OC)C2", 19),
    ("CCCN1C[C@H]2OC[C@@H]1C[C@]2(O)c1ccccc1OC", 3),
    ("CCCN1CCC(c2ccccc2OC)CC1", 99),
    ("CCCN1C[C@H]2OC[C@@H]1C[C@H]2c1ccccc1OC", 7),
    ("CCCN1[C@H]2CC[C@H]1CC(c1ccccc1OC)C2 (relative stereo; 4)", 0),
    ("CCCN1[C@H]2COC[C@H]1CC(c1ccccc1OC)C2 (relative stereo; 20)", 30),
]

###

- assayNotes: Stability in human microsomes; further: time not given here
- Format: ADME, Microsome
propertyLabel: Stability (%)

# molecule, propertyLabel, reportedResult
measured = [
    ("CCCN1CCC(c2ccccc2OC)CC1", "Stability", 86),
    ("CCCN1[C@H]2COC[C@H]1CC(c1ccccc1OC)C2 (relative stereo; 20)", "Stability", 42),
    ("CCCN1[C@H]2CC[C@H]1CC(c1ccc(OC)c(OC)c1)C2 (relative stereo)", "Stability", 50),
    ("CCCN1[C@H]2CC[C@H]1CC(c1ccc(OC)cc1)C2 (relative stereo)", "Stability", 8),
    ("CCCN1C[C@H]2OC[C@@H]1C[C@@H]2c1ccccc1OC", "Stability", 100),
    ("CCCN1[C@H]2CC[C@H]1CC(O)(c1ccccc1OC)C2 (relative stereo)", "Stability", 100),
    ("CCCN1C[C@H]2OC[C@@H]1C[C@H]2c1ccccc1OC", "Stability", 41),
]

###

- assayNotes: Efflux ratio of permeability in human Caco2 cells
- Assay type: ADME, cell-based
- settings: caco-2
// reported efflux ratio per item

# compound, efflux ratio
data = [
    ("CCCN1C[C@H]2OC[C@@H]1C[C@@H]2c1ccccc1OC", 0.8),
    ("CCCN1CCN(c2ccccc2OC)CC1", 1.1),
    ("CCCN1[C@H]2CC[C@H]1CC(c1ccc(OC)cc1)C2 (relative stereo)", 3),
    ("CCCN1[C@H]2COC[C@H]1CC(c1ccccc1OC)C2 (relative stereo; 20)", 2.3),
    ("CCCN1C[C@H]2OC[C@@H]1C[C@]2(O)c1ccccc1OC", 0.6),
    ("CCCN1[C@H]2CC[C@H]1CC(c1cc(OC)c(OC)c(OC)c1)C2 (relative stereo)", 5.6),
    ("CCCN1CCC(c2ccccc2OC)CC1", 1),
    ("CCCN1[C@H]2CC[C@H]1CC(c1cccc(OC)c1)C2 (relative stereo)", 2.6),
    ("CCCN1[C@H]2CC[C@H]1CC(c1ccc(OC)c(OC)c1)C2 (relative stereo)", 3.4),
]

###

- assayNotes: Stability in rat microsomes; further: time not given here
- Format: ADME, Microsome
Some compounds, each annotated with its measured Stability.

# compound, Stability [%]
records = [
    ("CCCN1[C@H]2CC[C@H]1CC(c1cc(OC)c(OC)c(OC)c1)C2 (relative stereo)", 4),
    ("CCCN1C[C@H]2OC[C@@H]1C[C@]2(O)c1ccccc1OC", 15),
    ("CCCN1[C@H]2CC[C@H]1CC(c1ccc(OC)cc1)C2 (relative stereo)", 2),
    ("CCCN1C[C@H]2OC[C@@H]1C[C@@]2(O)c1ccccc1OC", 53),
    ("CCCN1CCC(c2ccccc2OC)CC1", 4),
    ("CCCN1[C@H]2CC[C@H]1CC(c1ccc(OC)c(OC)c1)C2 (relative stereo)", 4),
]

###

- assaySystem: D(2) dopamine receptor (Homo sapiens) (UniProt P14416)
- Sequence (P14416 whole entry): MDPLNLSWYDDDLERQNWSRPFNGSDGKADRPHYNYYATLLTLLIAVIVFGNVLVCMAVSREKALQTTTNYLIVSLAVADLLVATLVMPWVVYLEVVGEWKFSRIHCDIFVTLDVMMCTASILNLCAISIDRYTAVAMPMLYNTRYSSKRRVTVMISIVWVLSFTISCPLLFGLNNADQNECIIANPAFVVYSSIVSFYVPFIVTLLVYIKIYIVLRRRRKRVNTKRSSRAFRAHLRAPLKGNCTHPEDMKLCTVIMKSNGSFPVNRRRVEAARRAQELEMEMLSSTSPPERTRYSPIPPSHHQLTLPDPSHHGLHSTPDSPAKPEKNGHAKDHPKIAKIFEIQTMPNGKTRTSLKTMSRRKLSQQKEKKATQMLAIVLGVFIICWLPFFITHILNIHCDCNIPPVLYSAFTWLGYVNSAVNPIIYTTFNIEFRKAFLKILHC
- assayNotes: Agonist activity at human D2L receptor expressed in CHOK1 cells assessed as inhibition of receptor response at 0.1 uM by calcium flux assay relative to control
- Type: functional, cell-based
propertyLabel: inhibition (%)

# molecule, propertyLabel, reportedResult
measured = [
    ("CCCN1CCN(c2ccccc2OC)CC1", "inhibition", 50),
    ("CCCN1CCC(c2ccccc2OC)CC1", "inhibition", 52),
    ("CCCN1[C@H]2CC[C@H]1CC(c1ccccc1OC)C2 (relative stereo; 8a)", "inhibition", 2),
    ("CCCN1[C@H]2CC[C@H]1CC(c1ccc(OC)cc1)C2 (relative stereo)", "inhibition", -1),
]

###

- assaySystem: hERG (KCNH2) (Homo sapiens, UniProt Q12809)
- Sequence (Q12809 whole entry): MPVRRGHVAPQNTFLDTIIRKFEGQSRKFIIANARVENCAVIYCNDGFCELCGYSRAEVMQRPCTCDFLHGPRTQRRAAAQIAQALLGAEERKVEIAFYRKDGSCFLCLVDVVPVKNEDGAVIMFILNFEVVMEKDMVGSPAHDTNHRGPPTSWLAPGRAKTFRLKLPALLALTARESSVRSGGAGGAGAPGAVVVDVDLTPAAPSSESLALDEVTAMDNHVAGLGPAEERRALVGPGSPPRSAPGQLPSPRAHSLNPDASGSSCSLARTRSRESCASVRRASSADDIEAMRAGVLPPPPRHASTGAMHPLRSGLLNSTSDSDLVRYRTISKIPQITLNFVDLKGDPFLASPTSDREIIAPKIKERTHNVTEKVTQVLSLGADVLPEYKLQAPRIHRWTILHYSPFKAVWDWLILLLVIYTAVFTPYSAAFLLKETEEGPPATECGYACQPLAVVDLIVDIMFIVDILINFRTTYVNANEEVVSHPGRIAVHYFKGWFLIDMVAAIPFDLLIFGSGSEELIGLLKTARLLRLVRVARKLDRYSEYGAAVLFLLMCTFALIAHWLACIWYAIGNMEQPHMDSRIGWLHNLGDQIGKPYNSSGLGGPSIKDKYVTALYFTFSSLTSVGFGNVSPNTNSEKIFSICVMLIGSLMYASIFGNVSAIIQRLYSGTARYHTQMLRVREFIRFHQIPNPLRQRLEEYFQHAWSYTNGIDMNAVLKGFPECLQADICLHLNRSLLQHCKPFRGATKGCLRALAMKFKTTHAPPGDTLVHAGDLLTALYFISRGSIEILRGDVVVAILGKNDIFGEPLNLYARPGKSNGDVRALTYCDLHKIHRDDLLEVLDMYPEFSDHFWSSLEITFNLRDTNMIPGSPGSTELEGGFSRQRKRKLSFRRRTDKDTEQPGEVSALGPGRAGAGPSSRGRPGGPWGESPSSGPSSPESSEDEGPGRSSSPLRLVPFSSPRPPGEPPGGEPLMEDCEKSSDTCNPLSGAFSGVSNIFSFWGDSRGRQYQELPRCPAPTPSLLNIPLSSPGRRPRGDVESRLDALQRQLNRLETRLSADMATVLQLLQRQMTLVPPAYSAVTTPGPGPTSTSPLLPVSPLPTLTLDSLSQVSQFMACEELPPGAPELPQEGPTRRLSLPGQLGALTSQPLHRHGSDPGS
- assayNotes: Inhibition of human ERG at 3 uM relative to control
Label Condition met when inhibition at 3 µM is at or above 20%; otherwise label Condition not met.

# molecule, classification
data = [
    ("CCCN1[C@H]2COC[C@H]1CC(c1ccccc1OC)C2 (relative stereo; 20)", "Condition met"),
    ("CCCN1[C@H]2CC[C@H]1CC(c1cc(OC)c(OC)c(OC)c1)C2 (relative stereo)", "Condition met"),
    ("CCCN1CCC(c2ccccc2OC)CC1", "Condition not met"),
    ("CCCN1C[C@H]2OC[C@@H]1C[C@H]2c1ccccc1OC", "Condition not met"),
    ("CCCN1[C@H]2CC[C@H]1CC(O)(c1ccccc1OC)C2 (relative stereo)", "Condition not met"),
    ("CCCN1C[C@H]2OC[C@@H]1C[C@@]2(O)c1ccccc1OC", "Condition not met"),
    ("CCCN1CCN(c2ccccc2OC)CC1", "Condition not met"),
    ("CCCN1[C@H]2CC[C@H]1CC(c1cccc(OC)c1)C2 (relative stereo)", "Condition met"),
    ("CCCN1C[C@H]2OC[C@@H]1C[C@]2(O)c1ccccc1OC", "Condition not met"),
]
